Some molecules, each annotated with its measured MIC.
# Test system: Serratia marcescens
# TEST: In vitro minimum inhibitory concentration (MIC) against Serratia marcescens.
# Format: functional
ENDPOINT NAME: MIC

> print(dat)
                            structure.string        tested.system     reading
 1  CO/N=C(\C(=O)N[C@@H]1C(=O)N2C(C(=O)O)=CCO[C@H]12)c1ccccc1  Serratia marcescens   100 µg/mL
 2  C=CCO/N=C(\C(=O)N[C@@H]1C(=O)N2C(C(=O)O)=CCO[C@H]12)c1csc(N)n1  Serratia marcescens   100 µg/mL
 3  CO/N=C(/C(=O)N[C@@H]1C(=O)N2C(C(=O)O)=CCO[C@H]12)c1csc(N)n1  Serratia marcescens   100 µg/mL
 4  CO/N=C(\C(=O)N[C@@H]1C(=O)N2C(C(=O)O)=CCS[C@H]12)c1csc(N)n1  Serratia marcescens    50 µg/mL
 5  CCCCO/N=C(\C(=O)N[C@@H]1C(=O)N2C(C(=O)O)=CCO[C@H]12)c1csc(N)n1  Serratia marcescens   100 µg/mL
 6  CC(C)O/N=C(\C(=O)N[C@@H]1C(=O)N2C(C(=O)O)=CCO[C@H]12)c1csc(N)n1  Serratia marcescens    25 µg/mL
 7  CO/N=C(\C(=O)N[C@@H]1C(=O)N2C(C(=O)O)=CCO[C@H]12)c1ccco1  Serratia marcescens   100 µg/mL
 8  C#CCO/N=C(\C(=O)N[C@@H]1C(=O)N2C(C(=O)O)=CCO[C@H]12)c1csc(N)n1  Serratia marcescens   100 µg/mL
 9  CCO/N=C(\C(=O)N[C@@H]1C(=O)N2C(C(=O)O)=CCO[C@H]12)c1csc(N)n1  Serratia marcescens  12.5 µg/mL
10  CO/N=C(\C(=O)N[C@@H]1C(=O)N2C(C(=O)O)=CCO[C@H]12)c1csc(N)n1  Serratia marcescens   100 µg/mL

====

Entries and their MIC values follow.
# System: Proteus mirabilis
# TEST: In vitro minimum inhibitory concentration (MIC) against Proteus mirabilis 1
# Assay type: functional
ENDPOINT NAME: MIC

> print(dat)
                                    molecule      reading
 1  C=CCO/N=C(\C(=O)N[C@@H]1C(=O)N2C(C(=O)O)=CCO[C@H]12)c1csc(N)n1    0.1 µg/mL
 2  CCCCO/N=C(\C(=O)N[C@@H]1C(=O)N2C(C(=O)O)=CCO[C@H]12)c1csc(N)n1   0.78 µg/mL
 3  C#CCO/N=C(\C(=O)N[C@@H]1C(=O)N2C(C(=O)O)=CCO[C@H]12)c1csc(N)n1    0.1 µg/mL
 4  CC(C)O/N=C(\C(=O)N[C@@H]1C(=O)N2C(C(=O)O)=CCO[C@H]12)c1csc(N)n1    0.2 µg/mL
 5  CO/N=C(\C(=O)N[C@@H]1C(=O)N2C(C(=O)O)=CCS[C@H]12)c1csc(N)n1 [CEFTIZOXIME]  0.025 µg/mL
 6  CO/N=C(\C(=O)N[C@@H]1C(=O)N2C(C(=O)O)=CCO[C@H]12)c1ccccc1   6.25 µg/mL
 7  CO/N=C(/C(=O)N[C@@H]1C(=O)N2C(C(=O)O)=CCO[C@H]12)c1csc(N)n1   3.13 µg/mL
 8  CO/N=C(\C(=O)N[C@@H]1C(=O)N2C(C(=O)O)=CCO[C@H]12)c1ccco1   0.78 µg/mL
 9  CO/N=C(\C(=O)N[C@@H]1C(=O)N2C(C(=O)O)=CCO[C@H]12)c1csc(N)n1    0.2 µg/mL
10  CCO/N=C(\C(=O)N[C@@H]1C(=O)N2C(C(=O)O)=CCO[C@H]12)c1csc(N)n1   0.05 µg/mL

====

# Tested on: Klebsiella pneumoniae
# TEST: In vitro minimum inhibitory concentration (MIC) against Klebsiella pneumonia 12
# Type: functional
Collected MIC values appear next to each entry.
ENDPOINT NAME: MIC (µg/mL)

> print(dat)
                            structure.string  endpoint.name  reading
 1  CO/N=C(\C(=O)N[C@@H]1C(=O)N2C(C(=O)O)=CCS[C@H]12)c1csc(N)n1            MIC     0.05
 2  CO/N=C(\C(=O)N[C@@H]1C(=O)N2C(C(=O)O)=CCO[C@H]12)c1ccccc1            MIC     12.5
 3  CC(C)O/N=C(\C(=O)N[C@@H]1C(=O)N2C(C(=O)O)=CCO[C@H]12)c1csc(N)n1            MIC     0.78
 4  CCCCO/N=C(\C(=O)N[C@@H]1C(=O)N2C(C(=O)O)=CCO[C@H]12)c1csc(N)n1            MIC     3.13
 5  CO/N=C(/C(=O)N[C@@H]1C(=O)N2C(C(=O)O)=CCO[C@H]12)c1csc(N)n1            MIC     1.56
 6  CO/N=C(\C(=O)N[C@@H]1C(=O)N2C(C(=O)O)=CCO[C@H]12)c1ccco1            MIC     1.56
 7  CO/N=C(\C(=O)N[C@@H]1C(=O)N2C(C(=O)O)=CCO[C@H]12)c1csc(N)n1            MIC     0.78
 8  C#CCO/N=C(\C(=O)N[C@@H]1C(=O)N2C(C(=O)O)=CCO[C@H]12)c1csc(N)n1            MIC      0.2
 9  CCO/N=C(\C(=O)N[C@@H]1C(=O)N2C(C(=O)O)=CCO[C@H]12)c1csc(N)n1            MIC      0.1
10  C=CCO/N=C(\C(=O)N[C@@H]1C(=O)N2C(C(=O)O)=CCO[C@H]12)c1csc(N)n1            MIC     1.56

====

# System: Staphylococcus aureus
# TEST: In vitro minimum inhibitory concentration (MIC) against 209P JC-1 strain of Staphylococcus aureus
# Format: functional
ENDPOINT NAME: MIC (µg/mL)

> print(dat)
                            structure.string  unit.of.measurement  reading
 1  CO/N=C(/C(=O)N[C@@H]1C(=O)N2C(C(=O)O)=CCO[C@H]12)c1csc(N)n1                µg/mL     12.5
 2  CO/N=C(\C(=O)N[C@@H]1C(=O)N2C(C(=O)O)=CCO[C@H]12)c1ccccc1                µg/mL     1.56
 3  CO/N=C(\C(=O)N[C@@H]1C(=O)N2C(C(=O)O)=CCO[C@H]12)c1ccco1                µg/mL     12.5
 4  CCCCO/N=C(\C(=O)N[C@@H]1C(=O)N2C(C(=O)O)=CCO[C@H]12)c1csc(N)n1                µg/mL     12.5
 5  C#CCO/N=C(\C(=O)N[C@@H]1C(=O)N2C(C(=O)O)=CCO[C@H]12)c1csc(N)n1                µg/mL     12.5
 6  CO/N=C(\C(=O)N[C@@H]1C(=O)N2C(C(=O)O)=CCS[C@H]12)c1csc(N)n1                µg/mL     6.25
 7  C=CCO/N=C(\C(=O)N[C@@H]1C(=O)N2C(C(=O)O)=CCO[C@H]12)c1csc(N)n1                µg/mL     6.25
 8  CC(C)O/N=C(\C(=O)N[C@@H]1C(=O)N2C(C(=O)O)=CCO[C@H]12)c1csc(N)n1                µg/mL     12.5
 9  CO/N=C(\C(=O)N[C@@H]1C(=O)N2C(C(=O)O)=CCO[C@H]12)c1csc(N)n1                µg/mL       25
10  CCO/N=C(\C(=O)N[C@@H]1C(=O)N2C(C(=O)O)=CCO[C@H]12)c1csc(N)n1                µg/mL     6.25

====

# Tested on: Escherichia coli
# TEST: In vitro minimum inhibitory concentration (MIC) against NIHJ JC-2 strain of Escherichia coli
# Assay type: functional
So basically: is MIC under 2 µg/mL? Then true (1). Not under? Then false (0).

> print(dat)
                                    compound  assigned.category
 1  CO/N=C(\C(=O)N[C@@H]1C(=O)N2C(C(=O)O)=CCO[C@H]12)c1csc(N)n1           true (1)
 2  C#CCO/N=C(\C(=O)N[C@@H]1C(=O)N2C(C(=O)O)=CCO[C@H]12)c1csc(N)n1           true (1)
 3  CCCCO/N=C(\C(=O)N[C@@H]1C(=O)N2C(C(=O)O)=CCO[C@H]12)c1csc(N)n1           true (1)
 4  CO/N=C(\C(=O)N[C@@H]1C(=O)N2C(C(=O)O)=CCO[C@H]12)c1ccco1          false (0)
 5  CO/N=C(/C(=O)N[C@@H]1C(=O)N2C(C(=O)O)=CCO[C@H]12)c1csc(N)n1          false (0)
 6  C=CCO/N=C(\C(=O)N[C@@H]1C(=O)N2C(C(=O)O)=CCO[C@H]12)c1csc(N)n1          false (0)
 7  CO/N=C(\C(=O)N[C@@H]1C(=O)N2C(C(=O)O)=CCS[C@H]12)c1csc(N)n1 [CEFTIZOXIME]           true (1)
 8  CO/N=C(\C(=O)N[C@@H]1C(=O)N2C(C(=O)O)=CCO[C@H]12)c1ccccc1          false (0)
 9  CC(C)O/N=C(\C(=O)N[C@@H]1C(=O)N2C(C(=O)O)=CCO[C@H]12)c1csc(N)n1           true (1)
10  CCO/N=C(\C(=O)N[C@@H]1C(=O)N2C(C(=O)O)=CCO[C@H]12)c1csc(N)n1           true (1)
